Just for reference, ChEMBL document CHEMBL3392924 is where these values come from.

Tested on: Saccharomyces cerevisiae
Experiment: Assay utilized the disc diffusion method with the observance of a clear zone indicating inhibition of growth. Synthetic complete medium containing 3% glycerol as a carbon source (SCG) was used in each assay. 10 uL of each compound was added to a paper disc which was placed on SCG and SCG+Artemisinin (0.2 uM) plates seeded with 10e6 yeast cells (WC081 strain: Mat a, leu2 delta 0, lys2 delta 0, ura3 delta 0, his3 delta 1, pdr1 delta::HIS3, pdr3 delta::kanMX4, derived from BY4742, regulators of Multi-drug resistance transporters have been deleted to enhance toxicity of compounds). Plates were incubated at 30 degrees C for 5 days and clear zones were measured. Compounds that produced a larger clear zone in the presence of artemisinin was considered to have an additive interaction with artemisinin. Results are reported as diameter of clear zone on SCG+artemisinin plates - diameter of clear zone on SCG plates without artemisinin.
Format: organism-based
Conditions: in vivo, 120 h
Consider the following compounds and their measured Diameter of inhibition zone readings.

[
  {
    "compound": "Cc1cc(Nc2ccc3ccccc3c2)n2ncnc2n1",
    "unit_of_measurement": "mm",
    "Diameter of inhibition zone": 7
  },
  {
    "compound": "COc1ccccc1NC1=C(N2CCCCC2)C(=O)c2ccccc2C1=O",
    "unit_of_measurement": "mm",
    "Diameter of inhibition zone": 0
  },
  {
    "compound": "COc1ccc(NC(=O)C2c3ccccc3C(=O)N(CC(C)C)C2c2cccs2)cc1Cl (stereo not given)",
    "unit_of_measurement": "mm",
    "Diameter of inhibition zone": 0
  },
  {
    "compound": "Cc1ccc(-c2cc3c(SCC(=O)Nc4cc(C(F)(F)F)ccc4Cl)nccn3n2)cc1",
    "unit_of_measurement": "mm",
    "Diameter of inhibition zone": 0
  },
  {
    "compound": "CC1CCN(Cc2ccc(NC(=O)c3cc4ccc5cccnc5c4[nH]3)cc2)CC1",
    "unit_of_measurement": "mm",
    "Diameter of inhibition zone": 0
  }
]
